Answer each item with its documented FXa assay OD, 10 nM Ab, 10 nM TFPI.
Biological target: recombinant human TFPI (tissue factor pathway inhibitor) (human, UniProt P10646 29-304)
Experiment: cell-based or functional assay
Answers are plain numbers.

List reported FXa assay OD, 10 nM Ab, 10 nM TFPI for each of these binders:
1. clone 12 (antibody, V domains shown, human IgG4/kappa IgG as purified; also called No. 12 antibody) VH: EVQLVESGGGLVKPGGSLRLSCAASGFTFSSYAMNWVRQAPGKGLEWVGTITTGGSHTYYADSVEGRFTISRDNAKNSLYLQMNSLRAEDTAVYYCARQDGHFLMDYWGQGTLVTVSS VL: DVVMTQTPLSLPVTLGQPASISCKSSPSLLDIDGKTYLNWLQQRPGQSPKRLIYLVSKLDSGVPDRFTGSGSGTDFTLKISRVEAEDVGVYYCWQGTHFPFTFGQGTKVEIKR
2. clone 2 (antibody, V domains shown) VH: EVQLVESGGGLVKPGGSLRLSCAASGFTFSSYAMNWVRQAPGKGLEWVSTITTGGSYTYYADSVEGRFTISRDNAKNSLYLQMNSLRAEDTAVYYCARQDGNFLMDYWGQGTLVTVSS VL: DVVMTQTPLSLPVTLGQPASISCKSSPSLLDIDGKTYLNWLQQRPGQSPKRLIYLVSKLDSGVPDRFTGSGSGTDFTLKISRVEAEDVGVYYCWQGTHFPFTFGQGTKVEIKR

Resp:
1: 0.68; 2: 0.632

Req: Return reported FXa assay OD, 10 nM Ab, 10 nM TFPI; argument: clone 8 (antibody, V domains shown) VH: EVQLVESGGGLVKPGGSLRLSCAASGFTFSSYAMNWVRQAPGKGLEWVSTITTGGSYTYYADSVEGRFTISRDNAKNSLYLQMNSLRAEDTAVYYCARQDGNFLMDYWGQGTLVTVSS VL: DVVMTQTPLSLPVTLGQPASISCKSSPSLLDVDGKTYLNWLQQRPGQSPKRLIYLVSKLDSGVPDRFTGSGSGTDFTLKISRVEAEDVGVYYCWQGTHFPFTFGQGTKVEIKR
Resp: 0.583
